experimental_target: Fuc(a1-2)[GalNAc(a1-3)]Gal(b1-4)GlcNAc(b1-2)Man
test_protocol: glycan array binding signal (z-score within array); higher = stronger binding
assay_conditions: glycan notation: IUPAC condensed, linker removed
The full list was thinned out, with the strongest signals kept by preference.
measurement_label: glycan array binding signal (z-score)
# output: bare number, no unit

[
  {
    "binder": "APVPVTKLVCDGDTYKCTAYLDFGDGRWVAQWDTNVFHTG [PhoSpL (Pholiota squarrosa)]",
    "number": 0.067
  }
]

Req: For Cohesin-mDCIR (Macaca mulatta) (protein) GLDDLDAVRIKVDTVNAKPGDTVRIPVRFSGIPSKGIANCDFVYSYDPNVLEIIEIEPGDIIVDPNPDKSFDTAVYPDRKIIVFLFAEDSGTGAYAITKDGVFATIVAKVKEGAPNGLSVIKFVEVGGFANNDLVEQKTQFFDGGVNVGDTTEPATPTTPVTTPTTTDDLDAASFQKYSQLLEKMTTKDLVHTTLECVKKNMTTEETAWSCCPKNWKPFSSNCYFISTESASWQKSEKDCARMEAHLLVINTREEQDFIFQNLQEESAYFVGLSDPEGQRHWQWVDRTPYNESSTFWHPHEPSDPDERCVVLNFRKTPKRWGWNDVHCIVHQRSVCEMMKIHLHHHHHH , write its glycan array binding signal (z-score).
Resp: -0.101

Req: For rCNL (Clitocybe nebularis), B2ZRS9 (protein) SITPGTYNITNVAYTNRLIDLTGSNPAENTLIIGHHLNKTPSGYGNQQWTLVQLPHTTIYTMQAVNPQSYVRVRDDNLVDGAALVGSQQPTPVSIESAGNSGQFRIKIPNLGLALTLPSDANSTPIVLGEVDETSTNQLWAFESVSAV , write its glycan array binding signal (z-score).
Resp: 3.12

Req: For AT5G24760(45) (Arabidopsis thaliana), Q8LEB2 (protein) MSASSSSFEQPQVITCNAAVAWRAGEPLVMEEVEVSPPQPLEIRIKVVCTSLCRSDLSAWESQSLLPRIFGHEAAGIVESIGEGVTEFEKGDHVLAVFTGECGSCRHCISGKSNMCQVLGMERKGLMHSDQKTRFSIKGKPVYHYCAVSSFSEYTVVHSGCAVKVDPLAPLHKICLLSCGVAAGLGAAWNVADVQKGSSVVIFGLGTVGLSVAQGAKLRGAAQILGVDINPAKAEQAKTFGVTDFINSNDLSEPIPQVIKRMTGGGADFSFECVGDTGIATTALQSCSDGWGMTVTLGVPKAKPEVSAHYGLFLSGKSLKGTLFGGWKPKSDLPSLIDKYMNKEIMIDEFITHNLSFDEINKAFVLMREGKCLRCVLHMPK , write its glycan array binding signal (z-score).
Resp: -0.179

Value source: the supplement of paper PMC8728848
